- measured target: human SLC6A19 and TMEM27 (Homo sapiens)
- Construct: expressed in transfected cells
- Sequence (Q695T7 whole entry): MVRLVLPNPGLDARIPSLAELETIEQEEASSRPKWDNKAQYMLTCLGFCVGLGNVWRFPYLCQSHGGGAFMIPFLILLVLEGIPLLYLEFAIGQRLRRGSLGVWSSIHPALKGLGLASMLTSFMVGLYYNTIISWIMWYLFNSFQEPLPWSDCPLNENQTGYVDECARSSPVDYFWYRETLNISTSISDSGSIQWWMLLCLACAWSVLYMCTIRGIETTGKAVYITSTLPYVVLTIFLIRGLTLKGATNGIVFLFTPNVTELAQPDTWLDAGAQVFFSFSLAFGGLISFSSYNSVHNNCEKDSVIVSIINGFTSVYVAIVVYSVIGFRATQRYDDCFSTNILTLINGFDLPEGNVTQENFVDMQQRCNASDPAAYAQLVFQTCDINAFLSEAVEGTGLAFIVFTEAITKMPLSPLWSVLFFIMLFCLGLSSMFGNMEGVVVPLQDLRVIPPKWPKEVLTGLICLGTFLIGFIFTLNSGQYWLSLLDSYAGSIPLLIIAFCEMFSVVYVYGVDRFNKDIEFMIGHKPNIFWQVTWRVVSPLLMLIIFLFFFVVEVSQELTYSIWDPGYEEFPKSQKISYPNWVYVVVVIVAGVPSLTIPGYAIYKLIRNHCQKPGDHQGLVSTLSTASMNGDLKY
- Sequence (Q9HBJ8 15-222 partner): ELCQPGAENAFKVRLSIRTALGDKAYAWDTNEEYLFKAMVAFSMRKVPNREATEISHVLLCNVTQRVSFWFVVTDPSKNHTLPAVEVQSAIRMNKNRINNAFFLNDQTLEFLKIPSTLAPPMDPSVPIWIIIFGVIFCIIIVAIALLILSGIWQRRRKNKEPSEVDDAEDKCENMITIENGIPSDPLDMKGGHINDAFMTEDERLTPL
- test description: Radiolabelled (3H) leucine uptake in CHO cells with doxycycline-inducible expression of human SLC6A19 and TMEM27 (Example B-1)
- Type: cell-based
- measurement setup: CHO cells with doxycycline-inducible expression of human SLC6A19 and TMEM27, read-out: SLC6A19_Radioligand Uptake Assay IC50
Binarize IC50 at 0.3 µM; below is 1.0, at or above is 0.0.

* O=C(NCc1cc2cc(OC(F)(F)F)c(OCc3cocn3)cc2[nH]1)N1CCC1 | 0.0
* CC(=O)NCc1cc2cc(Cl)c(OCc3cc(C)no3)cc2[nH]1 | 1.0
* Cc1cc(COc2cc3[nH]c(CNC(=O)CC4CC4)cc3cc2Cl)on1 | 1.0
* Cc1cc(COc2cc3[nH]c(CNC(=O)C(C)(F)F)cc3cc2F)on1 | 1.0
* CC1(C(=O)NCc2cc3cc(OC(F)(F)F)c(CCc4cocn4)cc3[nH]2)CC1 | 0.0
* CC1(C(=O)NCc2cc3cc(C(F)(F)F)c(OCc4cscn4)cc3[nH]2)CC1 | 1.0
* COc1cc2cc(CNC(=O)C3(C)CC3)[nH]c2cc1CCc1ccon1 | 1.0
* Cc1cncc(COc2cc3[nH]c(CNC(=O)C4(C)CC4)cc3cc2Cl)c1 | 0.0
* CSc1cc2cc(CNC(=O)C3(C)CC3)[nH]c2cc1OCc1cscn1 | 0.0
* Cc1cc(COc2cc3[nH]c(CNC(=O)[C@H]4CCCN4C)cc3cc2Cl)on1 | 0.0

Problem: # check: IC50 < 0.3 µM for CC1(C(=O)NCc2cc3cc(Cl)c(OCC4COC4)cc3[nH]2)CC1
Result: 0.0

Problem: hey, is IC50 for CC(C)C(=O)NCc1cc2cc(Cl)c(OCc3cocn3)cc2[nH]1 lower than 0.3 µM or not?
Result: 1.0

Problem: Would you kindly verify if IC50 of CC1(C(=O)NCc2cc3cc(F)c(CCc4cscn4)cc3[nH]2)CC1 is strictly less than 0.3 µM?
Result: 1.0
